system: M. tuberculosis H37Ra; experiment: microbe, parasite or virus in culture; type: cell-based, Mycobacterium tuberculosis; conditions: Mycobacterium tuberculosis, H37RA, read-out: MIC MTB H37Ra
quantity.kind: MIC (µM)
Just the number in µM, nothing appended.

IN: // MIC lookup, key: `CC1(NC(=O)Nc2ccccc2)CCCC1`
OUT: 25

IN: // MIC lookup, key: `CC1(NC(=O)Nc2ccc(Cl)c(C(F)(F)F)c2)CCCC1`
OUT: 0.4

IN: // MIC lookup, key: `CC1(NC(=O)Nc2ccc(Cl)c(C(F)(F)F)c2)COC2(CCC2)OC1`
OUT: 6.25

IN: // MIC lookup, key: `O=C(Nc1ccc(Cl)c(OC(F)(F)F)c1)NC1CCCCC1`
OUT: 3.13

IN: // MIC lookup, key: `O=C(Nc1ccc(Cl)c(C(F)(F)F)c1)NC12CC(C1)C2`
OUT: 12.5

IN: // MIC lookup, key: CC1CCCCC1NC(=O)Nc1ccc(Cl)c(C(F)(F)F)c1 (stereo not drawn)
OUT: 0.39

###

experiment: in vivo; design: species or system CD-1 female mice; conditions: female, CD-1, mouse, po, 400 mg/kg, AUC
quantity.kind: AUC

IN: // AUC lookup, key: `O=C(Nc1ccc(Cl)c(C(F)(F)F)c1)NC1COC2(CCC2)OC1`
OUT: 73.3 µM·h

###

test: in vivo; conditions: female, CD-1, mouse, iv, 5 mg/kg
quantity.kind: AUC
Form entry: enter the amount, then its unit.

IN: // AUC lookup, key: O=C(Nc1ccc(Cl)c(C(F)(F)F)c1)NC1COC2(CCC2)OC1 [Compound 21]
OUT: 4.58 µM·h

###

assay: in vivo; conditions: female, CD-1, mouse, po, 25 mg/kg
quantity.kind: AUC (µM·h)
Just the number in µM·h, nothing appended.

IN: // AUC lookup, key: `O=C(Nc1ccc(Cl)c(C(F)(F)F)c1)NC1COC2(CCC2)OC1`
OUT: 9.54

###

assay: in vitro; settings: mouse, microsomes
quantity.kind: half-life at 5 µM (min)
Just the number in min, nothing appended.

IN: // half-life at 5 µM lookup, key: `O=C(Nc1ccc(Cl)c(C(F)(F)F)c1)NC1COC2(CCC2)OC1`
OUT: 8

###

assay: in vivo; settings: female, CD-1, mouse, iv, 5 mg/kg
quantity.kind: half-life (min)
Just the number in min, nothing appended.

IN: // half-life lookup, key: `O=C(Nc1ccc(Cl)c(C(F)(F)F)c1)NC1COC2(CCC2)OC1`
OUT: 46.2

###

tested on: M. tuberculosis H37Ra; assay: microbe, parasite or virus in culture; assay type: cell-based, Mycobacterium tuberculosis; details: Mycobacterium tuberculosis, H37RA, read-out: MIC MTB H37Ra
# MIC annotations
Just the number in µM, nothing appended.

O=C(Nc1ccc(Cl)c(C(F)(F)F)c1)NC12CC3CC(CC(O)(C3)C1)C2
6.25
CC1(NC(=O)Nc2cc(F)c(F)c(F)c2)CCCC1
25
CC1(NC(=O)Nc2ccc(F)c(C(F)(F)F)c2)CCCC1
3.13

Moving on to the next compound.
IN: // MIC lookup, key: `O=C(Nc1ccc(Cl)c(C(F)(F)F)c1)NC1COC2(CCC2)OC1`
OUT: 0.8

###

assay: in vitro; details: mouse, microsomes
quantity.kind: microsomal CLint at 5 µM (µL/min/mg)
Just the number in µL/min/mg, nothing appended.

IN: // microsomal CLint at 5 µM lookup, key: `O=C(Nc1ccc(Cl)c(C(F)(F)F)c1)NC1COC2(CCC2)OC1`
OUT: 88
